B1: OR4K15 (parent)
chain: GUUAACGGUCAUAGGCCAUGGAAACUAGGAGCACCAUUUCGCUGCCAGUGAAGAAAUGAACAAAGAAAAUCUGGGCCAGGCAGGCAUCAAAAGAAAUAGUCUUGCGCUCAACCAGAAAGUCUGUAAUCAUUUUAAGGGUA

# Variants of: B1
# method: self-cleavage, relative activity (ratio to wild type); higher = more cleavage; in vitro, sequencing; the parent is a self-cleaving ribozyme
experimentalEndpoint: self-cleavage
Respond with the number and no other words.

1. A24G A95G :: 1.71

**Q:** Return value of self-cleavage for input U38C U122C , no commentary.
**A:** 0.8

**Q:** Quick one: give measured self-cleavage for C34U A60G
**A:** 1.29

**Q:** Supply recorded self-cleavage for U12G U102C here.
**A:** 1.11

**Q:** Please give the documented self-cleavage of U19C A91U
**A:** 1.37

**Q:** Name the recorded self-cleavage of the variant listed here: U2A U57C
**A:** 0.92

**Q:** Entry A89G U103C needs its self-cleavage filled in; supply it.
**A:** 0.55

**Q:** # return recorded self-cleavage for entry G44A U124A
**A:** 1.15

**Q:** Could you please provide reported self-cleavage for A30G C109A ? Thanks!
**A:** 0.23

**Q:** Indicate the recorded self-cleavage value for this variant: U70A U72C
**A:** 0.22

**Q:** Identify measured self-cleavage corresponding to U108C U133A
**A:** 0.01

**Q:** Tell me self-cleavage reported for U26A U132C
**A:** 0.9

**Q:** Please indicate self-cleavage recorded for A59G A111U
**A:** 0.07
